- Tested on: DC3F/AD
- PROCEDURE_DETAILS: Increase in adriamycin uptake in modulator-treated cells relative to untreated cells at a concentration of 10 uM
- Type: functional, Cricetulus griseus
Measured Increase, listed per entry.

# SMILES_DATA, Increase
data = [
    ("C=CCNc1nc(NCC=C)nc(NN2CCN(C(c3ccc(F)cc3)c3ccc(F)cc3)CC2)n1", 20.7),
    ("C=CCNc1nc(NCC=C)nc(N2CCN(CCC(c3ccccc3)c3ccccc3)CC2)n1", 1.2),
    ("C=CCNc1cc(N2CCC(NCC(c3ccccc3)c3ccccc3)CC2)nc(NCC=C)n1", 16.3),
    ("C=CCNc1nc(NCC=C)nc(N2CCN(CC3c4ccccc4CCc4ccccc43)CC2)n1", 24.5),
    ("C=CCNc1nc(NCC=C)nc(N2CCC(NCC3c4ccccc4CCCc4ccccc43)CC2)n1", 21.6),
]
